# system: SARS-CoV-2 N protein RNA-binding domain (SARS-CoV-2, UniProt P0DTC9 44-180)
# measurement-description: Octet (BLI) kinetics
recorded-metric: Kd (nM)
Give bare numbers, in nM.

Recorded results for 2 binders are shown here.
- NP3-F10 (antibody, V domains shown) VH: EVQLQQSGAELVEPGAPVKLSCKAFGYTFTSYWMNWVKQRPGRGLEWIGRIDPSDSETHYNQNFKDKAALTVDRSSSTAYIHLSSLTSEDSAVYYCAREVTTATKGVFSWLAYWGQGTLVTVSA VL: DIQMTQTTSSLSASLGDRVTISCSASQDISDYLNWYQQKPDGTIKLLIYYTSSLHSGAPSRFSGSGSGTDYSLTISNLEPEDIATYYCQQYSKLPWTFGGGTKLELK: 5.6
- NP3-H9 (antibody, V domains shown) VH: QIQLVQSGPELKKPGETVKISCKASGYTFTDYPIHWVKQAPGKGLKWMGWINAETGEPTYADDFKGRFVVSLETSASTAYLQINNLKNEDTATFFCARHYRYDEAWFVYWGQGTLVTVSA VL: DVQITQSPSSLSVSVGETVTITCRASENIYSNLAWYQQKQGKSPQLLVYAATDLADGVPSRFSGSGSGTHYSLKINSLQSEDFGSFYCQHFWGTPWTFGGGTKLEIK: 3.16

Please turn your attention to the following entry.
Asked: Please report the measured Kd for NP3-E11 (antibody, V domains shown) VH: EVQLQQSGPELVRPGVSVKISCKGSGYTFTDYVMHWVKQSHAKSLEWIGVISTYSGNTNYNQKFKGKATMTVDKSSNTVYMELARLTSEDSAIYYCTRGTGDFDYWGQGTTLTVSS VL: DIVMTQSHKFMSTSVGDRVSITCKASQDVGSAVAWYQQKPGQSPKLLIYWTSTRHTGVPDHFTGSGSGTDFTLTINNVQSEDLADYFCHQYSSYPYTFGGGTKLEIK
Given back: 0.57

// data source = patent US20250320278A1
